All values here come from patent US7863325B2.

method.notes: Solubility in different solvents (aliquot addition until dissolution)
Type: physicochemical
settings: aqueous with cosolvent or surfactant or cyclodextrin, thermodynamic from solid, Acetone/Water (50:50)
experimental.readout: solubility (mg/mL)
Give bare numbers, in mg/mL.

What value of measured solubility is listed for O.O.O=c1c(-c2ccc(O)cc2)coc2cc(O)cc(O)c12.[Na] [genistein sodium salt dihydrate] ?
69.6

====

Exercise: state measured solubility for each of the molecules provided.
method.notes: Solubility in different solvents (aliquot addition until dissolution)
Format: physicochemical
settings: organic solvent or mixture, thermodynamic from solid, Acetonitrile (MeCN)

| molecule | result |
| --- | --- |
| O.O.O=c1c(-c2ccc(O)cc2)coc2cc(O)cc(O)c12.[Na] [genistein sodium salt dihydrate] | < 10.4 mg/mL |

Lab note: next molecule to report on.
What value of measured solubility is listed for O=c1c(-c2ccc(O)cc2)coc2cc(O)cc(O)c12 [Genistein] ?
< 10.1 mg/mL

====

Exercise: state measured solubility for each of the compounds provided.
method.notes: Solubility in different solvents (aliquot addition until dissolution)
Assay type: physicochemical
settings: organic solvent or mixture, thermodynamic from solid, Diisopropylether (DIPE)

| compound | result |
| --- | --- |
| O=c1c(-c2ccc(O)cc2)coc2cc(O)cc(O)c12 | < 10.6 mg/mL |

Lab note: next compound to report on.
What value of measured solubility is listed for O.O.O=c1c(-c2ccc(O)cc2)coc2cc(O)cc(O)c12.[Na] [genistein sodium salt dihydrate] ?
< 9.7 mg/mL

====

method.notes: Solubility in different solvents (aliquot addition until dissolution)
Type: physicochemical
settings: organic solvent or mixture, thermodynamic from solid, Dimethyl sulfoxide (DMSO)
experimental.readout: solubility

Provide solubility values for the following items, in order.
1. O=c1c(-c2ccc(O)cc2)coc2cc(O)cc(O)c12 [Genistein]
2. O.O.O=c1c(-c2ccc(O)cc2)coc2cc(O)cc(O)c12.[Na] [genistein sodium salt dihydrate]

~100 mg/mL
> 235 mg/mL

====

method.notes: Solubility in different solvents (aliquot addition until dissolution)
Format: physicochemical
settings: organic solvent or mixture, thermodynamic from solid, Methyl isobutyl ketone (MIBK)
Description: Solubility in different solvents: Solubility in different organic solvents was measured using the following protocol. Approximately 25 mg portions of genistein and crystalline genistein sodium dihydrate salt were placed in 48 different vials, separately. 5 volume aliquots of each solvent were added exclusively to a vial. […]
experimental.readout: solubility

| compound | solubility |
| --- | --- |
| O.O.O=c1c(-c2ccc(O)cc2)coc2cc(O)cc(O)c12.[Na] [genistein sodium salt dihydrate] | < 9000 µg/mL |

Lab note: next compound to report on.
What value of measured solubility is listed for O=c1c(-c2ccc(O)cc2)coc2cc(O)cc(O)c12 [Genistein] ?
< 10100 µg/mL

====

Exercise: state measured solubility for each of the molecules provided.
method.notes: Solubility in different solvents (aliquot addition until dissolution)
Assay type: physicochemical
settings: organic solvent or mixture, thermodynamic from solid, 2-Propanol (IPA)

| molecule | result |
| --- | --- |
| O=c1c(-c2ccc(O)cc2)coc2cc(O)cc(O)c12 [Genistein] | < 10.5 mg/mL |

Lab note: next molecule to report on.
What value of measured solubility is listed for O.O.O=c1c(-c2ccc(O)cc2)coc2cc(O)cc(O)c12.[Na] [genistein sodium salt dihydrate] ?
< 10.2 mg/mL
